Numbers sourced from paper PMC8672774.

# Tested on: rat mast cells
# EXPERIMENTAL PROTOCOL: Ex vivo rat mast cell degranulation and histamine release assay
# REPORTED CONDITIONS: lowest concentration at which histamine release was observed; rat peritoneal mast cells, 30 min

{"SMILES TEXT": "CC[C@H](C)[C@@H]1NC(=O)[C@H](Cc2ccc(O)cc2)NC(=O)[C@H](CC(C)C)NC(=O)[C@@H]2CCCN2C(=O)[C@H](NC(=O)[C@H](CCCNC(=N)N)NC(=O)[C@H](CCCNC(=N)N)NC(=O)[C@H](CCCNC(=N)N)NC(=O)[C@H](CCCCN=[N+]=[N-])NC(C)=O)CSCSC[C@@H](C(=O)N[C@@H](CCCNC(=N)N)C(=O)N[C@@H](CCCNC(=N)N)C(=O)N[C@@H](CCCNC(=N)N)C(N)=O)NC(=O)[C@H](C(C)C)NC(=O)[C@@H]2CCCN2C(=O)[C@H](CC(=O)O)NC(=O)[C@H](Cc2ccc(O)cc2)NC(=O)[C@H](CO)NC1=O", "rMCD histamine release threshold": "≥0.14 µM"}

* * *

# EXPERIMENTAL PROTOCOL: in vitro
# REPORTED CONDITIONS: human, HeLa cell homogenate
RESULT TYPE: half-life at 1 µM (min)

{"COMPOUND": "CC[C@H](C)[C@@H]1NC(=O)[C@H](Cc2ccc(O)cc2)NC(=O)[C@H](CC(C)C)NC(=O)[C@@H]2CCCN2C(=O)[C@H](NC(=O)[C@H](CCCNC(=N)N)NC(=O)[C@H](CCCNC(=N)N)NC(=O)[C@H](CCCCN=[N+]=[N-])NC(C)=O)CSCSC[C@@H](C(=O)N[C@@H](CCCNC(=N)N)C(=O)N[C@@H](CCCNC(=N)N)C(N)=O)NC(=O)[C@H](C(C)C)NC(=O)[C@@H]2CCCN2C(=O)[C@H](CC(=O)O)NC(=O)[C@H](Cc2ccc(O)cc2)NC(=O)[C@](C)(CO)NC1=O [Compound 17]", "UOM": "min", "OBSERVED VALUE": 154}
{"COMPOUND": "CC[C@H](C)[C@@H]1NC(=O)[C@H](Cc2ccc(O)cc2)NC(=O)[C@H](CC(C)C)NC(=O)[C@@H]2CCCN2C(=O)[C@H](NC(=O)[C@H](CCCNC(=N)N)NC(=O)[C@H](CCCNC(=N)N)NC(=O)[C@H](CCCCN=[N+]=[N-])NC(C)=O)CSCSC[C@@](C)(C(=O)N[C@@H](CCCNC(=N)N)C(=O)N[C@@H](CCCNC(=N)N)C(N)=O)NC(=O)[C@H](C(C)C)NC(=O)[C@@H]2CCCN2C(=O)[C@H](CC(=O)O)NC(=O)[C@H](Cc2ccc(O)cc2)NC(=O)[C@H](CO)NC1=O [Compound 22]", "UOM": "min", "OBSERVED VALUE": 120}
{"COMPOUND": "CC[C@H](C)[C@@H]1NC(=O)[C@H](Cc2ccc(O)cc2)NC(=O)[C@H](CC(C)C)NC(=O)[C@@H]2CCCN2C(=O)[C@H](NC(=O)[C@H](CCCNC(=N)N)NC(=O)[C@H](CCCNC(=N)N)NC(=O)[C@H](CCCCN=[N+]=[N-])NC(C)=O)CSCSC[C@@H](C(=O)N[C@@H](CCCNC(=N)N)C(=O)N[C@@H](CCCNC(=N)N)C(N)=O)NC(=O)[C@H](C(C)C)NC(=O)[C@@H]2CCCN2C(=O)[C@](C)(CC(=O)O)NC(=O)[C@H](Cc2ccc(O)cc2)NC(=O)[C@H](CO)NC1=O [Compound 19]", "UOM": "min", "OBSERVED VALUE": 41}

* * *

# EXPERIMENTAL PROTOCOL: in vitro
# REPORTED CONDITIONS: human, tissue homogenate

{"SMILES TEXT": "CC[C@H](C)[C@@H]1NC(=O)[C@H](Cc2ccc(O)cc2)NC(=O)[C@H](CC(C)C)NC(=O)[C@@H]2CCCN2C(=O)[C@H](NC(=O)[C@H](CCCNC(=N)N)NC(=O)[C@H](CCCNC(=N)N)NC(=O)[C@H](CCCCN=[N+]=[N-])NC(C)=O)CSCSC[C@@H](C(=O)N[C@@H](CCCNC(=N)N)C(=O)N[C@@H](CCCNC(=N)N)C(N)=O)NC(=O)[C@H](C(C)C)NC(=O)[C@@H]2CCCN2C(=O)[C@H](CC(=O)O)NC(=O)[C@H](Cc2ccc(O)cc2)NC(=O)[C@H](CO)NC1=O", "half-life at 1 µM": "37 min"}

* * *

# reported rMCD histamine release threshold; entries follow
# Tested on: rat mast cells
# EXPERIMENTAL PROTOCOL: Ex vivo rat mast cell degranulation and histamine release assay
# REPORTED CONDITIONS: lowest concentration at which histamine release was observed; rat peritoneal mast cells, 30 min

{"SMILES TEXT": "CC[C@H](C)[C@@H]1NC(=O)[C@H](Cc2ccc(O)cc2)NC(=O)[C@H](CC(C)C)NC(=O)[C@@H]2CCCN2C(=O)[C@H](NC(=O)[C@H](CCCCN=[N+]=[N-])NC(C)=O)CSCSC[C@@H](C(=O)N[C@@H](CCCNC(=N)N)C(N)=O)NC(=O)[C@H](C(C)C)NC(=O)[C@@H]2CCCN2C(=O)[C@H](CC(=O)O)NC(=O)[C@H](Cc2ccc(O)cc2)NC(=O)[C@H](CO)NC1=O", "rMCD histamine release threshold": ">100 µM"}
{"SMILES TEXT": "CC[C@H](C)[C@@H]1NC(=O)[C@H](Cc2ccc(O)cc2)NC(=O)[C@H](CC(C)C)NC(=O)[C@@H]2CCCN2C(=O)[C@H](NC(=O)[C@H](CCCNC(=N)N)NC(=O)[C@H](CCCCN=[N+]=[N-])NC(C)=O)CSCSC[C@@H](C(=O)N[C@@H](CCCNC(=N)N)C(N)=O)NC(=O)[C@H](C(C)C)NC(=O)[C@@H]2CCCN2C(=O)[C@H](CC(=O)O)NC(=O)[C@H](Cc2ccc(O)cc2)NC(=O)[C@H](CO)NC1=O", "rMCD histamine release threshold": ">100 µM"}
{"SMILES TEXT": "CC[C@H](C)[C@@H]1NC(=O)[C@H](Cc2ccc(O)cc2)NC(=O)[C@H](CC(C)C)NC(=O)[C@@H]2CCCN2C(=O)[C@H](NC(=O)[C@H](CCCCN=[N+]=[N-])NC(C)=O)CSCSC[C@@H](C(N)=O)NC(=O)[C@H](C(C)C)NC(=O)[C@@H]2CCCN2C(=O)[C@H](CC(=O)O)NC(=O)[C@H](Cc2ccc(O)cc2)NC(=O)[C@H](CO)NC1=O", "rMCD histamine release threshold": ">100 µM"}

* * *

# EXPERIMENTAL PROTOCOL: in vitro
# REPORTED CONDITIONS: human, HeLa cell homogenate

{"SMILES TEXT": "CC[C@H](C)[C@@H]1NC(=O)[C@H](Cc2ccc(O)cc2)NC(=O)[C@H](CC(C)C)NC(=O)[C@@H]2CCCN2C(=O)[C@H](NC(=O)[C@H](CCCNC(=N)N)NC(=O)[C@H](CCCNC(=N)N)NC(=O)[C@H](CCCCN=[N+]=[N-])NC(C)=O)CSCSC[C@@H](C(=O)N[C@@H](CCCNC(=N)N)C(=O)N[C@@H](CCCNC(=N)N)C(N)=O)NC(=O)[C@H](C(C)C)NC(=O)[C@@H]2CCCN2C(=O)[C@H](CC(=O)O)NC(=O)[C@](C)(Cc2ccc(O)cc2)NC(=O)[C@H](CO)NC1=O", "half-life at 1 µM [h]": 1.18}
